- Tested on: plants
- Protocol Details: Test D pre-emergence, other plants of Tables D1 and D3
- Assay type: in vivo
- Experimental Setup: BRAPL; preemergent; rate 30; 20 DAA
# damage to plant (100=total damage to plant; 0=no damage to plant), BRAPL annotations
Recorded Endpoint: damage to plant (100=total damage to plant; 0=no damage to plant), BRAPL

Molecule	Value Measured
CN1CC(c2cnn(C)c2C(F)(F)F)C(C(=O)Nc2cccc(F)c2F)C1=O (racemic)	0
CN1CC(c2cc(C(F)(F)F)n(C)n2)C(C(=O)Nc2cccc(F)n2)C1=O (racemic)	20
CCn1nc([C@@H]2CN(C)C(=O)[C@H]2C(=O)Nc2cccc(F)c2F)c2cccc(F)c21	40
CN1CC(c2cc(C(F)(F)F)n(C)n2)C(C(=O)Nc2ccc(F)c(F)c2F)C1=O (racemic)	60
COc1c(F)cccc1NC(=O)C1C(=O)N(C)CC1c1cc(C(F)(F)F)n(C)n1 (racemic)	60
CCn1nc([C@H]2CN(C)C(=O)[C@@H]2C(=O)Nc2cccc(F)c2F)c2cc(F)ccc21	70
